molecular target: FER^WT (Homo sapiens, UniProt P16591); experiment: In vitro TR-FRET kinase assay; conditions: log[inhibitor] (M) -7
Sequence (P16591 448-820): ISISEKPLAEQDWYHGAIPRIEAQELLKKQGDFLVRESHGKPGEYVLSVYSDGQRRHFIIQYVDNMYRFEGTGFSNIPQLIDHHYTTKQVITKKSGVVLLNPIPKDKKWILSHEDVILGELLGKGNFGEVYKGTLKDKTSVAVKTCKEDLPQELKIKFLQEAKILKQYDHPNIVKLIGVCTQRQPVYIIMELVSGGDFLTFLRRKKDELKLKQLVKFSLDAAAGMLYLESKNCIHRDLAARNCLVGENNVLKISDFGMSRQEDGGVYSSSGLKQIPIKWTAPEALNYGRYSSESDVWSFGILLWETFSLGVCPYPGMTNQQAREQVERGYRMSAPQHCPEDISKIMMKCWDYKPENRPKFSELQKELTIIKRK
Answer each item with its documented Residual activity (%) WT Mean.
Answer with a number only, understood to be in %.

**Q:** Write down Residual activity (%) WT Mean measured for item C=CC(=O)Nc1ccccc1Nc1nc(Nc2ccccc2OC)ncc1Cl
**A:** 71.19

**Q:** Give recorded Residual activity (%) WT Mean. C#CCOc1ccc(Nc2ncc(Cl)c(Nc3ccccc3NC(=O)C=C)n2)c(OC)c1
**A:** 62.4124

**Q:** Hello, please tell me recorded Residual activity (%) WT Mean for this one: CCC(=O)Nc1ccccc1Nc1nc(Nc2ccccc2OC)ncc1Cl
**A:** 96.1324

**Q:** # return recorded Residual activity (%) WT Mean for input COc1ccccc1Nc1ncc(Cl)c(Nc2ccccc2S(=O)(=O)C(C)C)n1
**A:** 4.343
